Test system: SR leukemia
Assay: NCI-60 one-dose screen, 48 h (100 = growth as untreated, 0 = no growth, -100 = all killed)
Conditions: 10 µM unless noted
The panel holds about 83,000 compounds, 20% with a hit somewhere; the sample as a whole holds those more often.
Binning scheme for growth: bin 1 = under 10%, bin 2 = from 10% up to 90%, bin 3 = 90% and over

A selection of reference data follows.
[
  {
    "MOLECULE": "O=C1OC(=O)C2C3CC(c4ccccc43)C12 (stereo unspecified)",
    "ASSIGNED CLASS": "bin 3"
  },
  {
    "MOLECULE": "COc1ccccc1N1CCN(CCCOc2ccc(OCCCN3CCN(c4ccccc4OC)CC3)c(C(=O)c3cc(OC)c(OC)c(OC)c3)c2)CC1",
    "ASSIGNED CLASS": "bin 3"
  },
  {
    "MOLECULE": "O=C(Nc1cccc(-n2ccc3c(NC(=O)c4ccccc4)ncnc32)c1)Nc1ccc(Cl)c(C(F)(F)F)c1",
    "ASSIGNED CLASS": "bin 2"
  }
]

Sort COc1cc(C(=O)NNC(=O)c2ccccc2C(=O)O)cc(OC)c1OC into one of the categories. bin 1

Sort CCN(CC)CCNc1ccc([N+](=O)[O-])c2sc3cc(Cl)ccc3c(=O)c12 into one of the categories. bin 1

Sort CCOc1ccc(NC(=O)Nc2cc(C(C)C)ccc2C)cc1 into one of the categories. bin 2

Sort CCNc1ncnc2n[nH]nc12 into one of the categories. bin 3

Sort Fc1ccc(Nc2ncnc3ccc(-c4cn[nH]c4)cc23)cc1Cl into one of the categories. bin 1

Sort Cc1c(F)cccc1NC(=O)c1sc2nc3c(cc2c1N)CCCCC3 into one of the categories. bin 2

---

Test system: LOX IMVI melanoma
Assay: NCI-60 one-dose screen, 48 h (100 = growth as untreated, 0 = no growth, -100 = all killed)
Conditions: 10 µM unless noted
Compounds without any hit were thinned out: in the full panel of roughly 83,000, 20% have a hit.
For each record, write down the corresponding growth.
Answers are plain numbers, in %.

Below, 3 compounds whose answers are already recorded.
[
  {
    "ENTRY SMILES": "COc1ccc2c(c1)nnn1c3ncccc3c(N=O)c21",
    "EXPERIMENTAL ENDPOINT": "growth",
    "VALUE UNITS": "%",
    "VAL": -59.1
  },
  {
    "ENTRY SMILES": "O=c1[nH]ccc2nc(N3CCC(O)CC3)nc(Nc3cccc(C(F)(F)F)c3)c12",
    "EXPERIMENTAL ENDPOINT": "growth",
    "VALUE UNITS": "%",
    "VAL": 56.2
  },
  {
    "ENTRY SMILES": "NN=C(c1ccc(Cl)cc1)c1ccc(Cl)cc1",
    "EXPERIMENTAL ENDPOINT": "growth",
    "VALUE UNITS": "%",
    "VAL": 77.1
  }
]

For each listed entry, give its growth.
1. O=C(Nc1ccc(-n2cc(-c3ccncc3)c(-c3ccc(O)c(Cl)c3)n2)cc1)c1ccc(Cl)c(Cl)c1
2. C=C1C(=O)O[C@H]2[C@H]1CC/C(COC(=O)OC/C1=C/CC[C@@]3(C)O[C@H]3[C@H]3OC(=O)[C@@H](CN(C)C)[C@@H]3CC1)=C\CC[C@@]1(C)O[C@@H]21
3. Cc1ccc(Cn2cc(COc3ccc4c5ccnc(C)c5n(CCCc5ccccc5)c4c3)nn2)cc1
4. Nc1nccc2c1ccn2-c1cccc(NC(=O)c2ccc(N3CCOCC3)c(C(F)(F)F)c2)c1
5. O=S(=O)(CCN1CCOCC1)Nc1cc(-c2ccc3ncnc(Nc4ccc(F)c(Cl)c4)c3c2)cnc1Cl
6. Cc1ccc(N(CC2=NCCN2)c2cccc(O)c2)cc1

-29.1
-72.3
91.1
5.35
4.23
95
